These data points were gathered from patent US10045981B2.

Target: EGFR (L858R, T790M) (Homo sapiens, UniProt P00533, L858R/T790M)
Sequence (P00533 25-1210 T790M/L858R): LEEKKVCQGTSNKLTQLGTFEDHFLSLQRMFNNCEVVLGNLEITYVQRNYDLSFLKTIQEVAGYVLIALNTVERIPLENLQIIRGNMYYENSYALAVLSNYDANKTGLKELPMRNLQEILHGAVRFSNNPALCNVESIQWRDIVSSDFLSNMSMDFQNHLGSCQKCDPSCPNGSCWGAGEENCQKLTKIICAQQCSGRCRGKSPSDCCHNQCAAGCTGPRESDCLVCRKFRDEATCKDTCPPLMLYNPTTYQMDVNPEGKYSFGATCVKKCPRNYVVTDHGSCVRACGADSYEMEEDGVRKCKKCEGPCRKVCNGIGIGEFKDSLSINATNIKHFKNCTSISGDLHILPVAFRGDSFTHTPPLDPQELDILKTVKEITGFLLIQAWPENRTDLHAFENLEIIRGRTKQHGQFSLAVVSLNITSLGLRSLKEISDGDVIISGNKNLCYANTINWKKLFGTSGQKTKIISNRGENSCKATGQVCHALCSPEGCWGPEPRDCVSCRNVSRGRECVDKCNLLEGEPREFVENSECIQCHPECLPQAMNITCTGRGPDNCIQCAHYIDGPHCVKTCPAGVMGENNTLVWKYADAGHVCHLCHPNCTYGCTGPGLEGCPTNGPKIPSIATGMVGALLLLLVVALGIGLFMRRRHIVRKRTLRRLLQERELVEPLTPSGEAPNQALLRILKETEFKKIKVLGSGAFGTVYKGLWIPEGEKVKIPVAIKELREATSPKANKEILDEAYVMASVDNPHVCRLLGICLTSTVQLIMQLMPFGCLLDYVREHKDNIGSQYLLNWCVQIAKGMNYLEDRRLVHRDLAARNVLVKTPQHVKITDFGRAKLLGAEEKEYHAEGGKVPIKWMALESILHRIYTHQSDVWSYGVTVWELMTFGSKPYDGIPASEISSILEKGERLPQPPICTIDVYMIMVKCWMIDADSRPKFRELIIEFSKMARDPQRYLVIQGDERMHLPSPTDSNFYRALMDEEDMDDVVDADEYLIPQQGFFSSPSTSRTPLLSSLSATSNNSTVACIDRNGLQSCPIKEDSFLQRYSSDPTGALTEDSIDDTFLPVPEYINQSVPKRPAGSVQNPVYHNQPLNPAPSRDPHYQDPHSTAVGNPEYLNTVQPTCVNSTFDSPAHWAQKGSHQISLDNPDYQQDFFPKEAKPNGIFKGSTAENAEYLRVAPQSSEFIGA
Assay: Exemplary Kinase Panel Analysis
Format: biochemical
Conditions: 10 concentrations, 3-fold serial dilutions starting at 5 μM, duplicate
Outcome measure: IC50 (nM)
Give bare numbers, in nM.

Example cases with answers are listed next.
>  <Compound>
C=CC(=O)Nc1cc(NS(C)(=O)=O)cc(-c2cnc3ccccc3n2)c1

>  <IC50 (nM)>
1120

$$$$
>  <Compound>
C=CC(=O)Nc1cc(CN2CCN(C)C(=O)C2)cc(-c2cnc3ccccc3n2)c1

>  <IC50 (nM)>
231

$$$$
>  <Compound>
C=CC(=O)Nc1cc(CN2CCNC(=O)C2)cc(-c2cnc3ccccc3n2)c1

>  <IC50 (nM)>
1320

$$$$

What value of IC50 has been recorded for this entry: C=CC(=O)Nc1cc(CC(=O)OC)cc(-c2cnc3ccccc3n2)c1
653
